# EC50 values compiled below
# Test system: prednisolone-resistant leukemia cells
# test: Overcoming of prednisolone resistance
# Assay type: cell-based
# test.conditions: 72 h
experimental.endpoint: EC50 (µM)

>  <compound>
CC(C)CCC[C@@H](C)[C@H]1CC[C@H]2[C@@H]3[C@H]4OC[C@@]5(CCC(=O)C=C5C4=O)[C@H]3CC[C@]12C

>  <experimental.endpoint>
EC50

>  <unit.annotation>
µM

>  <lt.gt.eq>
=

>  <observed>
18

$$$$
>  <compound>
COC(=O)O[C@H]1CC[C@@]23CO[C@@H](C(=O)[C@@]2(O)C1)[C@H]1[C@@H]2CC[C@H]([C@H](C)CCCC(C)C)[C@@]2(C)CC[C@@H]13

>  <experimental.endpoint>
EC50

>  <unit.annotation>
µM

>  <lt.gt.eq>
>

>  <observed>
50

$$$$
>  <compound>
COC(=O)/C=C/C(=O)O[C@H]1CC[C@@]23CO[C@@H](C(=O)[C@@]2(O)C1)[C@H]1[C@@H]2CC[C@H]([C@H](C)CCCC(C)C)[C@@]2(C)CC[C@@H]13

>  <experimental.endpoint>
EC50

>  <unit.annotation>
µM

>  <lt.gt.eq>
=

>  <observed>
5

$$$$
>  <compound>
CC(C)CCC[C@@H](C)[C@H]1CC[C@H]2[C@@H]3[C@H]4OC[C@@]5(CC[C@H](O)C[C@]5(OCc5ccccc5)C4=O)[C@H]3CC[C@]12C [WIL-242b]

>  <experimental.endpoint>
EC50

>  <unit.annotation>
µM

>  <lt.gt.eq>
=

>  <observed>
40

$$$$
>  <compound>
CC(C)CCC[C@@H](C)[C@H]1CC[C@H]2[C@@H]3[C@H]4OC[C@@]5(CC[C@H](O)C[C@]5(O)C4=O)[C@H]3CC[C@]12C

>  <experimental.endpoint>
EC50

>  <unit.annotation>
µM

>  <lt.gt.eq>
=

>  <observed>
16

$$$$
>  <compound>
CC(C)CCC[C@@H](C)[C@H]1CC[C@H]2[C@@H]3[C@H]4OC[C@@]5(CC[C@H](OC(=O)CNC(=O)OC(C)(C)C)C[C@]5(O)C4=O)[C@H]3CC[C@]12C

>  <experimental.endpoint>
EC50

>  <unit.annotation>
µM

>  <lt.gt.eq>
=

>  <observed>
20

$$$$
>  <compound>
CC(C)CCC[C@@H](C)[C@H]1CC[C@H]2[C@@H]3[C@H]4OC[C@@]5(CC[C@@H](O)C[C@]5(O)C4=O)[C@H]3CC[C@]12C

>  <experimental.endpoint>
EC50

>  <unit.annotation>
µM

>  <lt.gt.eq>
=

>  <observed>
20

$$$$

Source of measurements: patent US20240398836A1
